Read-out: Interleukin-1 alpha (IL1a), IL1A (gene 3552)
Measurement Notes: BSK_LPS_IL1a: BioMAP Diversity Plus: LPS Assay for Interleukin-1 alpha (IL1a) Biomarker Activity (AID 2283080)
Applied Conditions: primary human HUVEC with PBMC; actives raise or lower the signal
Active and inactive are the calls of the source. How the source made its calls: active means hit-call score of the fitted dose curve at least 0.9, where 1 is the maximum; inactive means score below 0.9.
Classes used: label 1 = active, label 0 = inactive

[
  {
    "Molecule": "COc1ccc(CCN2CCC(Nc3nc4ccccc4n3Cc3ccc(F)cc3)CC2)cc1",
    "Label Class": "label 0"
  },
  {
    "Molecule": "CC(CN=Cc1ccccc1O)N=Cc1ccccc1O (stereo unspecified)",
    "Label Class": "label 0"
  },
  {
    "Molecule": "O=C1c2ccccc2C(=O)c2c(O)ccc(O)c21",
    "Label Class": "label 0"
  },
  {
    "Molecule": "CCCCCC(C=O)=Cc1ccccc1",
    "Label Class": "label 1"
  },
  {
    "Molecule": "O=C(Nc1ccc2c(O)c(N=Nc3ccc(N=Nc4ccc(S(=O)(=O)O)cc4)cc3)c(S(=O)(=O)O)cc2c1)c1ccccc1",
    "Label Class": "label 0"
  },
  {
    "Molecule": "CC(=O)C1(C)CC2=C(CCCC2(C)C)CC1C (stereo unspecified)",
    "Label Class": "label 1"
  }
]

Taken from PubChem BioAssay (EPA / NIEHS).
